B1: library; a variant is named by its letters at N, in order (parent)
chain: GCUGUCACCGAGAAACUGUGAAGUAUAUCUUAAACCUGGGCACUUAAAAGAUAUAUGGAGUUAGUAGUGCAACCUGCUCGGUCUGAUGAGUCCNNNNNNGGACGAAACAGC

variants of: B1; assay: FACS-Seq fitted mean relative fluorescence mCherry/BFP without ligand (log10 relative fluorescence); HEK293T; ligand: cyclic di-GMP (c-di-GMP-II aptamer); higher = higher reporter protein expression; details: ligand present: no
Kind request: treat -0.4 as inclusive, so FACS-Seq fitted mean (log10) at -0.4 or higher is true (1), anything lower is false (0).

State whether the measured FACS-Seq fitted mean (log10) reaches -0.4, counting equality as reaching it, for GCUGUCACCGAGAAACUGUGAAGUAUAUCUUAAACCUGGGCACUUAAAAGAUAUAUGGAGUUAGUAGUGCAACCUGCUCGGUCUGAUGAGUCCAAGAACGGACGAAACAGC
false (0)

State whether the measured FACS-Seq fitted mean (log10) reaches -0.4, counting equality as reaching it, for GCUGUCACCGAGAAACUGUGAAGUAUAUCUUAAACCUGGGCACUUAAAAGAUAUAUGGAGUUAGUAGUGCAACCUGCUCGGUCUGAUGAGUCCAGGUAUGGACGAAACAGC
true (1)

State whether the measured FACS-Seq fitted mean (log10) reaches -0.4, counting equality as reaching it, for GCUGUCACCGAGAAACUGUGAAGUAUAUCUUAAACCUGGGCACUUAAAAGAUAUAUGGAGUUAGUAGUGCAACCUGCUCGGUCUGAUGAGUCCGAAAAUGGACGAAACAGC
true (1)

State whether the measured FACS-Seq fitted mean (log10) reaches -0.4, counting equality as reaching it, for GCUGUCACCGAGAAACUGUGAAGUAUAUCUUAAACCUGGGCACUUAAAAGAUAUAUGGAGUUAGUAGUGCAACCUGCUCGGUCUGAUGAGUCCACGAUGGGACGAAACAGC
true (1)

State whether the measured FACS-Seq fitted mean (log10) reaches -0.4, counting equality as reaching it, for GCUGUCACCGAGAAACUGUGAAGUAUAUCUUAAACCUGGGCACUUAAAAGAUAUAUGGAGUUAGUAGUGCAACCUGCUCGGUCUGAUGAGUCCUCUAAAGGACGAAACAGC
false (0)

State whether the measured FACS-Seq fitted mean (log10) reaches -0.4, counting equality as reaching it, for GCUGUCACCGAGAAACUGUGAAGUAUAUCUUAAACCUGGGCACUUAAAAGAUAUAUGGAGUUAGUAGUGCAACCUGCUCGGUCUGAUGAGUCCUAUAUCGGACGAAACAGC
false (0)

State whether the measured FACS-Seq fitted mean (log10) reaches -0.4, counting equality as reaching it, for GCUGUCACCGAGAAACUGUGAAGUAUAUCUUAAACCUGGGCACUUAAAAGAUAUAUGGAGUUAGUAGUGCAACCUGCUCGGUCUGAUGAGUCCUAAGGAGGACGAAACAGC
false (0)

State whether the measured FACS-Seq fitted mean (log10) reaches -0.4, counting equality as reaching it, for GCUGUCACCGAGAAACUGUGAAGUAUAUCUUAAACCUGGGCACUUAAAAGAUAUAUGGAGUUAGUAGUGCAACCUGCUCGGUCUGAUGAGUCCAUGAGAGGACGAAACAGC
true (1)

State whether the measured FACS-Seq fitted mean (log10) reaches -0.4, counting equality as reaching it, for GCUGUCACCGAGAAACUGUGAAGUAUAUCUUAAACCUGGGCACUUAAAAGAUAUAUGGAGUUAGUAGUGCAACCUGCUCGGUCUGAUGAGUCCACAUGGGGACGAAACAGC
false (0)

State whether the measured FACS-Seq fitted mean (log10) reaches -0.4, counting equality as reaching it, for GCUGUCACCGAGAAACUGUGAAGUAUAUCUUAAACCUGGGCACUUAAAAGAUAUAUGGAGUUAGUAGUGCAACCUGCUCGGUCUGAUGAGUCCCGCUAUGGACGAAACAGC
false (0)

State whether the measured FACS-Seq fitted mean (log10) reaches -0.4, counting equality as reaching it, for GCUGUCACCGAGAAACUGUGAAGUAUAUCUUAAACCUGGGCACUUAAAAGAUAUAUGGAGUUAGUAGUGCAACCUGCUCGGUCUGAUGAGUCCCUCUACGGACGAAACAGC
true (1)

State whether the measured FACS-Seq fitted mean (log10) reaches -0.4, counting equality as reaching it, for GCUGUCACCGAGAAACUGUGAAGUAUAUCUUAAACCUGGGCACUUAAAAGAUAUAUGGAGUUAGUAGUGCAACCUGCUCGGUCUGAUGAGUCCCGUGAUGGACGAAACAGC
false (0)

State whether the measured FACS-Seq fitted mean (log10) reaches -0.4, counting equality as reaching it, for GCUGUCACCGAGAAACUGUGAAGUAUAUCUUAAACCUGGGCACUUAAAAGAUAUAUGGAGUUAGUAGUGCAACCUGCUCGGUCUGAUGAGUCCUCACGAGGACGAAACAGC
true (1)

State whether the measured FACS-Seq fitted mean (log10) reaches -0.4, counting equality as reaching it, for GCUGUCACCGAGAAACUGUGAAGUAUAUCUUAAACCUGGGCACUUAAAAGAUAUAUGGAGUUAGUAGUGCAACCUGCUCGGUCUGAUGAGUCCCUUACAGGACGAAACAGC
false (0)

State whether the measured FACS-Seq fitted mean (log10) reaches -0.4, counting equality as reaching it, for GCUGUCACCGAGAAACUGUGAAGUAUAUCUUAAACCUGGGCACUUAAAAGAUAUAUGGAGUUAGUAGUGCAACCUGCUCGGUCUGAUGAGUCCCAAGAAGGACGAAACAGC
false (0)

State whether the measured FACS-Seq fitted mean (log10) reaches -0.4, counting equality as reaching it, for GCUGUCACCGAGAAACUGUGAAGUAUAUCUUAAACCUGGGCACUUAAAAGAUAUAUGGAGUUAGUAGUGCAACCUGCUCGGUCUGAUGAGUCCCCUACCGGACGAAACAGC
false (0)
